# testName: Absorption test of cilostazol into the large intestine (Test Example 1)
# Assay type: in vivo, rats
# conditionDetails: rat, blood, other: directly administered in a large intestine loop; female rats, large intestine loop, 100 mg/kg as CLZ; 2.0 hr after administration
endpointName: concentration at 2 hr (µg/mL)
Only the number, expressed in µg/mL, is required.

Exercise: I'd like to know its concentration at 2 hr. The compound in question is O=C1CCc2cc(OCCCCc3nnnn3C3CCCCC3)ccc2N1 [Comp. Example 1, cilostazol]
Solution: 0.17

Every entry's value here was drawn from patent US7144585B1.
